// pIC50 lookup, one value per entry
- system: T1, HA-GCN4 hAPRIL (amino acid residues 105-250) (human, UniProt O75888 105-250)
- T1 construct: Bought (R&D Systems); also called HA-tagged GCN4 human APRIL; HA-GCN4-huAPRIL; not shown: N-terminal HA tag; GCN4 isoleucine zipper oligomerization domain
- T1 sequence: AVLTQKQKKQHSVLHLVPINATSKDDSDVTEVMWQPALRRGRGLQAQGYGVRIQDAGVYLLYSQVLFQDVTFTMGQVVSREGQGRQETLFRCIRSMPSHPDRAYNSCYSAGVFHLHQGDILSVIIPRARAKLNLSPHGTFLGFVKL
- measurement_description: blocking ELISA, 4-parameter fit; blocked: human APRIL binding to human TACI-Fc
- Experimental: Recombinant TACI-Fc or BCMA-Fc was coated on 96 well plates in 0.1 M carbonate-bicarbonate buffer (pH 9.6), overnight at 4° C. […] HA-tagged APRIL binding to either receptor was quantified using a goat polyclonal anti-HA tag-HRP antibody (Abcam) added at a 1:10000 dilution followed by colorimetric development using 100 μl/well of freshly prepared TMB substrate (KPL) carried out for up to 30 minutes at room temperature before quenching enzymatic reaction by the addition of 1N sulfuric acid. […]
pIC50: −log10 of the molar value.

binder	pIC50
monoclonal antibody 2218 (antibody, mouse IgG2, V domains shown) VH: DVQLQESGPGLVKPSQSLSLTCSVTGYSITSGYYWNWIRQFPGNKLEWMGYISYDGYNNYNPSLKNRISITRDTSKNQFFLKLNSVTTEDTATYYCANYYDYEDWYFGVWGTGTTVTVSS VL: DIVLTQSPASLAMSLGKRATISCRASESVSIIGTNSIHWYQQKPGQPPKLLIYHASNLETGVPARFSGSGSRTDFTLTIDPVEEDDVAIYYCLQSRKIPYTFGGGTKLEIK	9.13
monoclonal antibody 3525 (antibody, mouse IgG2, V domains shown) VH: QVQLQQSGAELVRPGASVKLSCKASGYTFTDHEMHWVRQTPVHGLEWIGVIDPDTGDTTYNQKFKGKATLTADKSSSTAYMDLRSLTSEDSAVFYCTRWTGGDYWGHGTTLTVSS VL: DVVMTQTPLSLSVTIGQPASISCKSSQSLLYSNGKTYLNWFQQRPGQSPKRLMYQVSKLDPGIPDRFSGSGSETDFTLKISRVEAEDLGLYYCLQGTYYPYTFGGGTKLEIK	8.39
monoclonal antibody 2621 (antibody, mouse IgG2, V domains shown) VH: EVQLQQSGAELVRPGSSVKMSCKTSGYTFTSYGINWVKQRPGQGLEWIGYIYIGNGYAEYNERFKGKATLTSDTSSSTAYMQLSSLTSEDSAIYFCALYYPWFTYWGQGTLVTVSA VL: DIQMTQSPASLSASVGDSVTITCRASENIYSYLAWYQQKQGKSPQLLVYNAKTLAEGVPSRFSGSGSGTQFSLKINSLQPEDFGNYYCQHHYDTPFTFGGGTKLEIK	9.00
